tested on: MCF7; experiment: normalised growth rate inhibition (GR value) relative to DMSO control (GR (1 = untreated growth, 0 = cytostasis, <0 = cytotoxic)); higher = less growth inhibition; conditions: 1.11 µM; 72 h
Cut-off 0.2 on normalised growth rate inhibition, inclusive. At or above means 1.0; below means 0.0.

>  <compound>
CN(c1ccccc1CNc1nc(Nc2ccc3c(c2)CC(=O)N3)ncc1C(F)(F)F)S(C)(=O)=O

>  <class.assignment>
0.0

$$$$
>  <compound>
Cc1cn(-c2cc(NC(=O)c3ccc(C)c(Nc4nccc(-c5cccnc5)n4)c3)cc(C(F)(F)F)c2)cn1 [nilotinib]

>  <class.assignment>
1.0

$$$$
>  <compound>
O=C1NC(=O)/C(=C/c2ccc3nccc(-c4ccncc4)c3c2)S1

>  <class.assignment>
1.0

$$$$

### Prompt Reported normalised growth rate inhibition at or above 0.2? CCc1cc(Nc2nccc(-c3c(-c4ccc(OC)c(C(=O)Nc5c(F)cccc5F)c4)nc4ccccn34)n2)c(OC)cc1N1CCC(N2CCN(S(C)(=O)=O)CC2)CC1
### Response 1.0

### Prompt Reported normalised growth rate inhibition at or above 0.2? CN(c1ncccc1CNc1nc(Nc2ccc3c(c2)CC(=O)N3)ncc1C(F)(F)F)S(C)(=O)=O
### Response 1.0

### Prompt Reported normalised growth rate inhibition at or above 0.2? CNC(=O)c1cc(Oc2ccc(NC(=O)Nc3ccc(Cl)c(C(F)(F)F)c3)cc2)ccn1 [sorafenib]
### Response 1.0

### Prompt Reported normalised growth rate inhibition at or above 0.2? Cc1nc(NC(=O)N2CCC[C@H]2C(N)=O)sc1-c1ccnc(C(C)(C)C(F)(F)F)c1
### Response 1.0

### Prompt Reported normalised growth rate inhibition at or above 0.2? N#CC(c1ccnc(NCCc2cccnc2)n1)c1nc2ccccc2s1 (stereo unspecified)
### Response 1.0

### Prompt Reported normalised growth rate inhibition at or above 0.2? CO[C@H]1C[C@@H]2CC[C@@H](C)[C@@](O)(O2)C(=O)C(=O)N2CCCC[C@H]2C(=O)O[C@H]([C@H](C)C[C@@H]2CC[C@@H](O)[C@H](OC)C2)CC(=O)[C@H](C)/C=C(\C)[C@@H](O)[C@@H](OC)C(=O)[C@H](C)C[C@H](C)/C=C/C=C/C=C/1C [sirolimus]
### Response 1.0

### Prompt Reported normalised growth rate inhibition at or above 0.2? Cc1ncc(-c2ccnc(Nc3ccc(S(C)(=O)=O)cc3)n2)n1C(C)C [AZD-5438]
### Response 0.0

### Prompt Reported normalised growth rate inhibition at or above 0.2? O=C(NC1CCNCC1)c1n[nH]cc1NC(=O)c1c(Cl)cccc1Cl [AT-7519]
### Response 0.0

### Prompt Reported normalised growth rate inhibition at or above 0.2? CCCS(=O)(=O)Nc1ccc(F)c(C(=O)c2c[nH]c3ncc(Cl)cc23)c1F [PLX-4720]
### Response 1.0

### Prompt Reported normalised growth rate inhibition at or above 0.2? Cc1ccc2nc(NCCN)c3ncc(C)n3c2c1
### Response 1.0

### Prompt Reported normalised growth rate inhibition at or above 0.2? COc1ccc(-c2ccc3c(N4CCOC[C@@H]4C)nc(N4CCOC[C@@H]4C)nc3n2)cc1CO [AZD-8055]
### Response 0.0

### Prompt Reported normalised growth rate inhibition at or above 0.2? C=CC(=O)Nc1cccc(Nc2nc(NC3CCC(N(C)C)CC3)nc3c2ncn3C(C)C)c1 (stereo unspecified) [WZ-3105]
### Response 0.0
